# maps each entry to its recovery
# assay_info: Permeability in human Caco2 cells assessed as drug recovery
# Assay type: ADME, cell-based
# assay_conditions: Caco-2, read-out: Drug recovery
parameter: recovery (%)

compound=CNS(=O)(=O)c1ccc(CC(=O)Nc2cc(-c3cc(C#N)cnc3OC)cs2)cc1 quantitative_result=55
compound=CCS(=O)(=O)c1ccc(CC(=O)Nc2cc(-c3cc(C#N)ccc3OC)cs2)cc1 quantitative_result=41
compound=CCS(=O)(=O)c1ccc(CC(=O)Nc2cc(-c3cc(C#N)cc(F)c3OC)cs2)cc1 quantitative_result=41
compound=CCS(=O)(=O)c1ccc(CC(=O)Nc2cc(-c3cc(C#N)cnc3OC)cs2)cc1 quantitative_result=44
compound=CCS(=O)(=O)c1ccc(CC(=O)Nc2cc(-c3cccc(Cl)c3)c(C(=O)c3ccccc3Cl)s2)cc1 quantitative_result=52
